Numbers sourced from patent US4623662A.

test system: cholesterol absorption; experiment: Inhibition of cholesterol absorption in rats fed 1% cholesterol:0.5% cholic acid diet; type: in vivo, male Sprague-Dawley rats; conditions: po, 336 h; rat; dose .03% of the diet, 2 weeks; read-out: SS (serum sterol), percentage of control values
property-name: response vs control in vivo at 0.03 %
Your reply should be a number followed by the unit it is expressed in.

Answered cases to consult:
compound	response vs control in vivo at 0.03 %
CCCCCCCN(Cc1ccc(CCCC)cc1)C(=O)Nc1ccc(Cl)cc1Cl	58%
CCCCc1ccc(CN(CCCCCCO)C(=O)Nc2cc(C)c(C)cc2C)cc1	57%
Cc1cc(Cl)ccc1NC(=O)N(CCC(C)(C)C)Cc1cccs1	62%
CC(C)CCN(Cc1ccc(C(C)C)cc1)C(=O)Nc1ccc(F)cc1F	49%
CCCCCCCN(Cc1ccc(OCCCC)cc1)C(=O)Nc1ccc(C)cc1C	26%
Cc1ccc(NC(=O)N(Cc2ccccc2)C(Cc2ccccc2)c2ccccc2)c(C)c1 (stereo not shown)	52%
Cc1cc(Cl)cc(C)c1NC(=O)N(CCC(C)C)Cc1ccc(C(C)C)cc1	23%
CCCCOc1ccc(CN(Cc2ccccc2)C(=O)Nc2c(Cl)cc(Cl)cc2Cl)cc1	40%

Dear reader, for each entry below, please note its response vs control in vivo at 0.03 %.
1. CCCCCOc1ccc(CN(Cc2ccc(CCCCC)cc2)C(=O)Nc2c(Cl)cc(Cl)cc2Cl)cc1
2. CCCCc1ccc(CN(Cc2ccccc2)C(=O)Nc2ccc(CCCC)cc2)cc1

RESULT:
100%
53%

----------
tested on: cholesterol absorption; assay: Inhibition of cholesterol absorption in rats fed 1% cholesterol:0.5% cholic acid diet; type: in vivo, male Sprague-Dawley rats; conditions: po, 336 h; rat; dose .03% of the diet, 2 weeks; read-out: SS (serum sterol), percentage of control values
Flag rule - response vs control in vivo at 0.03 % less than 50% flags true (1); the remaining entries get false (0).

# example entries with known answers
molecule	system-tested	answer-label
CCCCc1ccc(CN(CCC(C)(C)C)C(=O)Nc2c(C)cc(Cl)cc2C)cc1	cholesterol absorption	true (1)
CCCCc1ccc(CN(CCOCCO)C(=O)Nc2cc(C)c(C)cc2C)cc1	cholesterol absorption	false (0)
O=C(Nc1c(Cl)cc(Cl)cc1Cl)N(Cc1ccccc1)C(Cc1ccccc1)c1ccc(OCc2ccccc2)cc1 (stereo not shown)	cholesterol absorption	false (0)
O=C(Nc1ccc(F)cc1F)N(Cc1ccccc1)C(Cc1ccccc1)c1ccc(OCc2ccccc2)cc1 (stereo not shown)	cholesterol absorption	true (1)
CCCCc1ccc(CN(CCCCCCC#N)C(=O)Nc2ccc(Cl)cc2C)cc1	cholesterol absorption	true (1)

QUERY: Hello, is response vs control in vivo at 0.03 % of the following molecule strictly smaller than 50%? CCCCCCCN(Cc1ccc(CCCC)cc1)C(=O)Nc1ccc(Cl)cc1C
RESULT: true (1)

QUERY: Consider CCCCN(Cc1ccccc1)C(=O)Nc1c(C)cccc1C . Does its response vs control in vivo at 0.03 % lie strictly below 50%?
RESULT: false (0)

QUERY: Hi there! Is response vs control in vivo at 0.03 % for CCCCCCCN(Cc1ccc(CCCCCl)cc1)C(=O)Nc1c(C)cc(Cl)cc1C below 50%, do you know?
RESULT: true (1)

----------
tested on: cholesterol absorption; assay: Inhibition of cholesterol absorption in rats fed 1% cholesterol:0.5% cholic acid diet; assay type: in vivo, male Sprague-Dawley rats; settings: po, 336 h; rat; dose .03% of the diet, 2 weeks; read-out: SS (serum sterol), percentage of control values
property-name: response vs control in vivo at 0.03 % (%)
Give bare numbers, in %.

Examples from the recorded data:
compound	system-tested	response vs control in vivo at 0.03 % [%]
Cc1cc(Cl)ccc1NC(=O)N(Cc1ccccc1)C(Cc1ccccc1)c1ccc(OCc2ccccc2)cc1 (stereo not drawn)	cholesterol absorption	50
CCCCCCCN(Cc1ccc(CCCC)cc1)C(=O)Nc1ccc(C(F)(F)F)cc1	cholesterol absorption	79
CCCCN(Cc1ccccc1)C(=O)Nc1cc(C)cc(C)c1	cholesterol absorption	93
CCCCCCCN(CCc1ccccc1)C(=O)Nc1ccc(C)cc1C	cholesterol absorption	57
CCCCCCCN(CCc1ccccc1)C(=O)Nc1ccc(Cl)cc1Cl	cholesterol absorption	81

I would be grateful if you could provide response vs control in vivo at 0.03 % for each of the following entries.
1. CCCCc1ccc(CN(CCC(C)(C)C)C(=O)Nc2ccc(Cl)cc2C)cc1
2. CCCCCCCN(Cc1ccc(CCCC)cc1)C(=O)Nc1cc(C)c(C)cc1C
3. CCCCCCCN(Cc1ccc(OCCCC)cc1)C(=O)Nc1ccc(Cl)cc1C
4. O=C(Nc1ccc(F)cc1F)N(Cc1ccc(Cl)cc1)Cc1cccc2ccccc12
5. CCCCCOc1ccc(CN(Cc2ccc(CCCCC)cc2)C(=O)Nc2ccc(Cl)cc2Cl)cc1
6. CCCCN(Cc1ccccc1)C(=O)Nc1c(Cl)cc(Cl)cc1Cl
7. CCCCCCOc1ccc(CN(CCCC)C(=O)Nc2c(C)cc(C)cc2C)cc1
8. CCCCOc1ccc(CN(Cc2ccccc2)C(=O)Nc2cc(C)c(C)cc2C)cc1

RESULT:
46
33
53
45
91
48
54
43

Respectfully, I request response vs control in vivo at 0.03 % for each entry included below.
1. CCCCN(Cc1ccccc1)C(=O)Nc1ccc(C)cc1C
2. CCCCc1ccc(CN(Cc2ccccc2)C(=O)Nc2ccc(Cl)cc2C)cc1
3. CCCCCOc1ccc(CN(Cc2ccc(CCCCC)cc2)C(=O)Nc2ccc(F)cc2F)cc1
4. CCCCCCCN(Cc1ccc(OCCCC)cc1)C(=O)Nc1ccc(F)cc1F
5. CCCCCCCN(Cc1ccc(CCCC)cc1)C(=O)Nc1cccc(C)c1
6. O=C(Nc1cccc(C(F)(F)F)c1)N(Cc1ccc(Cl)cc1)Cc1cccc2ccccc12

RESULT:
[70, 70, 55, 63, 49, 87]

List response vs control in vivo at 0.03 % for every entry below, keeping the order given.
1. CCCCCCCOc1ccc(CN(CCCC)C(=O)Nc2c(C)cc(C)cc2C)cc1
2. CCCCCCCN(Cc1ccc(CCCC)cc1)C(=O)Nc1ccc(Cl)cc1C(F)(F)F

RESULT:
66
63
